tested on: Phytophthora infestans; format: in vivo; conditions: 500 ppm active ingredient, preventive spray on young tomato plants, evaluated 5 days after inoculation

{"SMILES_REPRESENTATION": "CC(=NOCc1ccccc1)Nc1cccc(CO/N=C(/c2ccccc2)c2noc(=O)n2C)n1", "% efficacy / %": 100}
{"SMILES_REPRESENTATION": "CC(=NO)Nc1cccc(CO/N=C(/c2ccccc2)c2nc(=O)on2C)n1", "% efficacy / %": 99}
{"SMILES_REPRESENTATION": "Cn1c(C(=NOCc2csc(C#CC3CC3)n2)c2ccccc2)noc1=O", "% efficacy / %": 99}
{"SMILES_REPRESENTATION": "Cn1oc(=O)nc1/C(=N\\OCc1csc(C#CC2CC2)n1)c1ccccc1", "% efficacy / %": 100}
{"SMILES_REPRESENTATION": "CCCCC#Cc1cccc(CO/N=C(/c2ccccc2)c2nc(=O)on2C)n1", "% efficacy / %": 100}
{"SMILES_REPRESENTATION": "CC(=NO)Nc1cccc(CO/N=C(/c2ccccc2)c2noc(=O)n2C)n1", "% efficacy / %": 100}
{"SMILES_REPRESENTATION": "CCCCON=C(C)Nc1cccc(CO/N=C(/c2ccccc2)c2noc(=O)n2C)n1", "% efficacy / %": 100}
{"SMILES_REPRESENTATION": "Cn1c(/C(=N\\OCc2cccc(C#Cc3ccccc3)n2)c2ccccc2)noc1=O", "% efficacy / %": 80}
{"SMILES_REPRESENTATION": "CC(=NOCc1ccccc1)Nc1cccc(CO/N=C(/c2ccccc2)c2nc(=O)on2C)n1", "% efficacy / %": 100}
{"SMILES_REPRESENTATION": "Cn1c(C(=NOCc2cccc(C=Cc3ccccc3)n2)c2ccccc2)noc1=O", "% efficacy / %": 92}
{"SMILES_REPRESENTATION": "Cn1oc(=O)nc1/C(=N\\OCc1cccc(C#Cc2ccccc2)n1)c1ccccc1", "% efficacy / %": 98}
{"SMILES_REPRESENTATION": "Cn1c(C(=NOCc2csc(C#CCc3ccccc3)n2)c2ccccc2)noc1=O", "% efficacy / %": 90}
{"SMILES_REPRESENTATION": "CC(=NOCC1CC1)Nc1cccc(CO/N=C(/c2ccccc2)c2noc(=O)n2C)n1", "% efficacy / %": 99}
{"SMILES_REPRESENTATION": "Cn1oc(=O)nc1C(=NOCc1csc(C=CC2CCCCC2)n1)c1ccccc1", "% efficacy / %": 95}
{"SMILES_REPRESENTATION": "Cn1oc(=O)nc1C(=NOCc1csc(C#CCc2ccccc2)n1)c1ccccc1", "% efficacy / %": 98}
{"SMILES_REPRESENTATION": "Cn1oc(=O)nc1/C(=N\\OCc1cccc(C#CC(C)(C)C)n1)c1ccccc1", "% efficacy / %": 100}
{"SMILES_REPRESENTATION": "Cn1c(/C(=N\\OCc2csc(C#CC3CCCCC3)n2)c2ccccc2)noc1=O", "% efficacy / %": 78}

Data provenance: patent US9375010B2
